Here, each record is paired with measured IC50 data.
- assay.summary: DNDI: Cytotoxicity against human MRC-5 lung fibroblast cells.
- condition.details: IC50

In the examples that follow, each entry is paired with its recorded IC50.
1) COc1ccc2c(c1)S/C(=C/C(=O)c1ccncc1)N2C ... > 41.7 µM
2) N/C(=N\OC(=O)C12CC3CC(CC(C3)C1)C2)c1ccccc1Cl ... > 41.7 µM
3) CCN1C(=Cc2sc3ccc(Cl)cc3[n+]2CC)C=Cc2cc(OC)ccc21 ... > 4.17 µM

Query: Give its IC50 value. Item: NCCCCNCCOC(c1ccc(F)cc1)c1ccc(F)cc1
Response: > 20.8 µM

Query: Any idea what IC50 was measured for CCOC(=O)C/C(C)=N/Nc1ccc(-n2nc(C)c(C)c2C)nn1 ?
Response: > 10.4 µM

Query: Dear colleague, I am looking for the recorded IC50 of the following compound: CC(C)(C)c1ccc(CN2CCCn3c2nc2ccccc23)cc1
Response: > 20.8 µM

====

- assay.summary: DNDI: Cytotoxicity against human MRC-5 lung fibroblast cells.
- condition.details: IC50
reported.property: IC50

1. CC(C)=CC1C(C(=O)O/N=C(\N)c2ccccc2)C1(C)C (centres undefined) ... > 41.7 µM
2. CN1CCN(c2nc(Nc3ccc(F)cc3)nc(Nc3ccc(F)cc3)n2)CC1 ... > 41.7 µM
3. COc1ccccc1C(=O)Nc1ccccc1Sc1cc(C)nc2ncnn12 ... > 41.7 µM

Query: Need IC50 of CCOC(=O)c1ccc(CN2C(=O)C(=O)c3cc(OC(F)(F)F)ccc32)o1 , thanks.
Response: > 20.8 µM

Query: I am curious: what IC50 value has been reported for N#C/C(=C\c1cccn1-c1ccc(S(N)(=O)=O)cc1)c1nc2ccccc2[nH]1 ?
Response: > 41.7 µM

Query: IC50 lookup needed for CCN1C=CC(=Cc2ccc3cc(C)ccc3[n+]2C)C=C1 , thanks.
Response: > 20.8 µM

Query: For the molecule shown here, CC1CCC(C(C)C)C(OCC(O)CN2C(C)CCCC2C)C1 (centres undefined) , give the reported IC50.
Response: > 20.8 µM

Query: Using the record for c1ccc(Cn2s/c(=N\c3ccccc3)nc2-c2ccccc2)cc1 , report its IC50.
Response: > 20.8 µM

====

Form field: pIC50 (one value per entry).
- assay.summary: DNDI: Cytotoxicity against human MRC-5 lung fibroblast cells.
- condition.details: IC50
pIC50: −log10 of the molar value.

Would you please look over these solved cases?
1. O=C(N/N=C/c1c(O)ccc2ccccc12)c1cc(Br)ccc1O ... < 5.38
2. CCN(CC)CCn1c(=N)n(CC(=O)c2ccc(C)cc2)c2ccccc21 ... < 4.38
3. Cc1ccc(NCC(=O)N/N=C/c2c(C)cc(O)cc2O)cc1 ... < 4.68
4. CNCCCC1Sc2ccccc2Oc2ccccc21 (stereo unspecified) ... < 4.38
5. N=C(NOC(=O)C12CC3CC(CC(C3)C1)C2)c1ccccc1 ... < 4.68

Query: Item under review: COc1ccc(-c2cc(-c3ccccc3)c(C#N)c([S+](C)[O-])n2)cc1 (stereo unspecified) . Reported pIC50?
Response: < 4.38

Query: Look at this compound and give its reported pIC50. COc1ccc(C)cc1/N=N/c1ccc(O)c2nc(/C=N/O)ccc12
Response: < 4.68

Query: What pIC50 value was documented for this compound, CC1(C)CC(=O)C/C(=N\NC(=O)c2sc3ccccc3c2Cl)C1 ?
Response: < 4.38

Query: May I ask what pIC50 has been recorded for CC(C)OCc1cc(CN2CCOCC2)c(O)c2ncccc12 ?
Response: 6.04

Query: Recorded pIC50 for C/C(=N\NC(=O)c1ccc(Cl)c(Cl)c1)c1ccccn1 , please?
Response: < 4.38

Query: I have this compound here, Cc1cc(C)c2c(c1)CC(C)(C)C(=O)C2=O , and I need its recorded pIC50.
Response: < 4.38
